- TARGET: Orexin receptor type 2 (Homo sapiens)
- Sequence (O43614 whole entry): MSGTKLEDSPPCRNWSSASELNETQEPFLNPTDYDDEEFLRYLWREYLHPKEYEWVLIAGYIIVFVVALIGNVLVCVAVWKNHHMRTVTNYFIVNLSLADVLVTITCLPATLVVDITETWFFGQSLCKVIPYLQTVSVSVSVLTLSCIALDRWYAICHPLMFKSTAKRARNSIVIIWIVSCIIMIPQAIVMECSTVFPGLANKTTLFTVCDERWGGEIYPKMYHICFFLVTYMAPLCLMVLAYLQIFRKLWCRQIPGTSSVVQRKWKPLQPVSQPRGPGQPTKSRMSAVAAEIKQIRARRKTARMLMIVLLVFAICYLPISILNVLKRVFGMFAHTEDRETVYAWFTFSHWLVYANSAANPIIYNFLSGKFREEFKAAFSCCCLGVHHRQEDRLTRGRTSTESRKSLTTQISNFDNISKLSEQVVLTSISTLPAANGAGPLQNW
- EXPERIMENTAL DETAILS: Agonist activity at OX2R (unknown origin) expressed in CHO cells by cell-based calcium assay
pEC50: −log10 of the molar value.
OUTCOME MEASURE: pEC50

Answered examples (2):
{"CHEMICAL STRING": "COc1ccccc1C(=O)N(C)c1cccc2ccc(NS(=O)(=O)c3cc(-c4cccc(C(=O)N(C)C)c4)ccc3OC)cc12", "REPORTED RESULT": "< 5.00"}
{"CHEMICAL STRING": "COc1ccc(-c2cccc(C(=O)N(C)C)c2)cc1S(=O)(=O)Nc1ccc2ccc(NC(=O)c3ccccc3)cc2c1", "REPORTED RESULT": "< 5.00"}

Given the compound COc1ccc(-c2cccc(C(=O)N(C)C)c2)cc1S(=O)(=O)Nc1ccc2ccc(N(C)C(=O)c3ccccc3)cc2c1 and test system Orexin receptor type 2 (Homo sapiens), the measured pEC50 is < 5.00
